B1: Tesmin, residues 368 to 403; numbered along this chain, Q9Y4I5 (parent)
chain: KGCNCRRSGCLKNYCECYEAQIMCSSICKCIGCKNY

Variants of: B1
test protocol: abundance fitness (aPCA) (normalised: wild type 0, dead -1); higher = more abundant; growth selection in yeast, the domain comes from the species named
condition parameters: Homo sapiens
property label: abundance fitness
// response body must contain only the number

- mutation notation: "N13Y"
  abundance fitness: -0.51
- mutation notation: "I31W"
  abundance fitness: -0.099
- mutation notation: "K12S"
  abundance fitness: -0.181
- mutation notation: "S25K"
  abundance fitness: -0.196

The value of abundance fitness measured for the variant Q21P turned out to be -0.073

Record summary for I22V : reported abundance fitness = 0.048

Measured abundance fitness, E16G : -0.086
